# Tested on: 521955-158-R2-J5-PDC complex spheroids, viability
# experimental.protocol: Anticancer human tumor 521955-158-R2-J5-PDC patient-derived pancreatic carcinoma cell line growth inhibition [RAS]
# test.parameters: curve of first compound; second compound 0.316 µM
pIC50: −log10 of the molar value.
endpoint.name: pIC50

INSERT INTO assay_data (compound, numeric_readout) VALUES
  ('C[C@@H](NC(=O)c1ncnc(N)c1Cl)c1ncc(C(=O)Nc2cc(C(F)(F)F)c(Cl)cn2)s1 + C#Cc1c(F)ccc2cc(O)cc(-c3ncc4c(N5CC6CCC(C5)N6)nc(OCC56CCCN5CC(F)C6)nc4c3F)c12', 5.48),
  ('CCc1c2c(nc3ccc(O)cc13)-c1cc3c(c(=O)n1C2)COC(=O)[C@]3(O)CC + C#Cc1c(F)ccc2cc(O)cc(-c3ncc4c(N5CC6CCC(C5)N6)nc(OCC56CCCN5CC(F)C6)nc4c3F)c12', 8.95);

P: CCC(CC)c1cc(NC2CCC(N)C2)n2nccc2n1 (stereo not given) + C=CC(=O)N1CCN(c2nc(OCC3CCCN3C)nc3c(F)c(-c4nc(N)cc(C)c4C(F)(F)F)c(Cl)cc23)C(C)C1
Q: CCC(CC)c1cc(NC2CCC(N)C2)n2nccc2n1 (stereo not given) + C#Cc1c(F)ccc2cc(O)cc(-c3ncc4c(N5CC6CCC(C5)N6)nc(OCC56CCCN5CC(F)C6)nc4c3F)c12
Q: Which has the higher pIC50, P or Q ? Indicate which entry you chose by stating its label.
Ans: Q

----------
# Tested on: 521955-158-R2-J5-PDC complex spheroids, viability
# experimental.protocol: Anticancer human tumor 521955-158-R2-J5-PDC cell line growth inhibition [RAS];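 note: compound exposure lasted seven days before the viability read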;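 for viability, T/C: spheroids also contain HUVEC endothelial cells and mesenchymal stem cells as stroma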
# test.parameters: second compound 1 µM; first compound 1 µM; stronger effect = lower value
Quick reference: viability, T/C of the listed items.
The response must be a number in % with no trailing unit.

Below are worked cases with known answers.
INSERT INTO assay_data (compound, numeric_readout) VALUES
  ('C[C@@H](NC(=O)c1ncnc(N)c1Cl)c1ncc(C(=O)Nc2cc(C(F)(F)F)c(Cl)cn2)s1 + C#Cc1c(F)ccc2cc(O)cc(-c3ncc4c(N5CC6CCC(C5)N6)nc(OCC56CCCN5CC(F)C6)nc4c3F)c12', 51),
  ('Nc1ccn(C2OC(CO)C(O)C2(F)F)c(=O)n1 (stereo not given) + C#Cc1c(F)ccc2cc(O)cc(-c3ncc4c(N5CC6CCC(C5)N6)nc(OCC56CCCN5CC(F)C6)nc4c3F)c12', 14),
  ('Cc1nc(N2CCC3(CC2)COC(C)C3N)c(CO)nc1Sc1ccnc(N)c1Cl (stereo not given) + C#Cc1c(F)ccc2cc(O)cc(-c3ncc4c(N5CC6CCC(C5)N6)nc(OCC56CCCN5CC(F)C6)nc4c3F)c12', 30.7),
  ('CC1(O)CCCC1n1c(=O)c(C(F)F)cc2cnc(NC3CCN(S(C)(=O)=O)CC3)nc21 (stereo not given) + C=CC(=O)N1CCN(c2nc(OCC3CCCN3C)nc3c(F)c(-c4nc(N)cc(C)c4C(F)(F)F)c(Cl)cc23)C(C)C1', 84);

Please find the next compound below.
Q: Tell me the measured viability, T/C of NC1c2ccccc2OC12CCN(c1cnc3c(N4CCCc5ncccc54)n[nH]c3n1)CC2 (stereo not given) + C=CC(=O)N1CCN(c2nc(OCC3CCCN3C)nc3c(F)c(-c4nc(N)cc(C)c4C(F)(F)F)c(Cl)cc23)C(C)C1 , please.
Ans: 69.6
